Recorded measurements of MIC Bacillus subtilis, one per entry
Tested on: Bacillus subtilis
Assay type: cell-based
MEASUREMENT CONDITIONS: 24 h
Non-standard residues stand in square brackets, D forms with d. Residues, ends and D or L forms follow the SMILES beside them. dOrn = NCCC[C@@H](N)C(=O)O; Orn = NCCC[C@H](N)C(=O)O

>>> reported_result("CC[C@@H](C)[C@@H](NC(=O)[C@@H](NC(=O)[C@H](CO)NC(=O)[C@H](Cc1c[nH]c2ccccc12)NC(=O)[C@@H](CCCN)NC(=O)[C@H](CO)NC(=O)[C@H](CO)NC(=O)[C@@H](Cc1c[nH]c2ccccc12)NC(=O)[C@@H](CO)NC(=O)[C@H](NC(=O)[C@@H](CCCN)NC(=O)[C@H](N)Cc1ccccc1)[C@H](C)CC)C(C)C)C(=O)N[C@@H](CCCN)C(=O)O [5W] (H-[dF][dOrn][dI][dS][dW]SS[dOrn]WSV[dI][Orn]-OH)")
"2 µg/mL"
>>> reported_result("CC[C@@H](C)[C@@H](NC(=O)[C@@H](NC(=O)[C@H](CO)NC(=O)[C@H](Cc1c[nH]c2ccccc12)NC(=O)[C@@H](CCCN)NC(=O)[C@H](CO)NC(=O)[C@H](CO)NC(=O)[C@@H](Cc1c[nH]c2ccccc12)NC(=O)[C@@H](CO)NC(=O)[C@H](NC(=O)[C@@H](CCCN)NC(=O)[C@@H](Cc1ccccc1)NC(C)=O)[C@H](C)CC)C(C)C)C(=O)N[C@@H](CCCN)C(=O)O [4W] (Ac-[dF][dOrn][dI][dS][dW]SS[dOrn]WSV[dI][Orn]-OH)")
"1 µg/mL"

Asked: Requested field: MIC Bacillus subtilis. Item: CC[C@@H](C)[C@@H](NC(=O)[C@@H](NC(=O)[C@H](CO)NC(=O)[C@H](Cc1ccccc1)NC(=O)[C@@H](CCCN)NC(=O)[C@H](CO)NC(=O)[C@H](CO)NC(=O)[C@@H](Cc1ccccc1)NC(=O)[C@@H](CO)NC(=O)[C@H](NC(=O)[C@@H](CCCN)NC(=O)[C@H](N)Cc1ccccc1)[C@H](C)CC)C(C)C)C(=O)N[C@@H](CCCN)C(=O)O [5F] (H-[dF][dOrn][dI][dS][dF]SS[dOrn]FSV[dI][Orn]-OH)
Given back: 16 µg/mL

---

Test system: Klebsiella pneumoniae
Assay type: cell-based
MEASUREMENT CONDITIONS: 24 h
Non-standard residues stand in square brackets, D forms with d. Residues, ends and D or L forms follow the SMILES beside them. dOrn = NCCC[C@@H](N)C(=O)O; Orn = NCCC[C@H](N)C(=O)O
ENDPOINT NAME: MIC Klebsiella pneumoniae (µg/mL)
Value expressed in µg/mL; do not type the unit.

Asked: Quick check: MIC Klebsiella pneumoniae on Klebsiella pneumoniae, item CC[C@@H](C)[C@@H](NC(=O)[C@@H](NC(=O)[C@H](CO)NC(=O)[C@H](Cc1ccccc1)NC(=O)[C@@H](CCCN)NC(=O)[C@H](CO)NC(=O)[C@H](CO)NC(=O)[C@@H](Cc1ccccc1)NC(=O)[C@@H](CO)NC(=O)[C@H](NC(=O)[C@@H](CCCN)NC(=O)[C@H](N)Cc1ccccc1)[C@H](C)CC)C(C)C)C(=O)N[C@@H](CCCN)C(=O)O [5F] (H-[dF][dOrn][dI][dS][dF]SS[dOrn]FSV[dI][Orn]-OH) ?
Given back: 4
